Every entry's value here was drawn from paper PMC6271340.

# Test system: MCF-7, human breast cancer cells
# Experimental protocol: MTT cytotoxicity assay, MCF-7
# Assay type: cell-based
# Setup conditions: MCF7, 72 h
# Experimental: We examined the cytotoxicity of ISL nitrogenous derivatives against three cancer cell lines (PC-3, MCF-7 and HO-8910) and normal human THP-1 cells using MTT growth inhibition assays. ISL was used as a positive control. […] Cytotoxicity was evaluated against four human cell lines (MCF-7 breast cancer, PC-3 prostatic cancer, HO-8910 ovarian cancer, and THP1 normal cells). […] The cell viability ratio was calculated by the following formula: Inhibitory ratio (%) = (1 − ODtreated/ODcontrol) × 100%.
Doc: threshold 70 µM (exclusive). Items with IC50 beneath it return true (1); others return false (0).

hey, is IC50 for O=C(C=Cc1ccc(O)cc1)c1ccc(O)c(CNCCO)c1O lower than 70 µM or not?
true (1)

In plain terms, does O=C(/C=C/c1ccc(O)cc1)c1ccc(O)c(CN2CCCC2)c1O come in under 70 µM for IC50?
false (0)

hey, is IC50 for O=C(/C=C/c1ccc(O)cc1)c1ccc(O)c(CNC2CCCCC2)c1O lower than 70 µM or not?
false (0)

Consider CCN(CC)Cc1c(O)ccc(C(=O)/C=C/c2ccc(O)cc2)c1O . Does its IC50 lie strictly below 70 µM?
false (0)

Answer whether the molecule CC(C)(C)NCc1c(O)ccc(C(=O)/C=C/c2ccc(O)cc2)c1O has IC50 strictly less than 70 µM
false (0)

Strictly below 70 µM in IC50? O=C(/C=C/c1ccc(O)cc1)c1ccc(O)c(CN(CCO)CCO)c1O
true (1)

Strictly below 70 µM: is that where IC50 of O=C(/C=C/c1ccc(O)cc1)c1ccc(O)cc1O sits?
true (1)

Problem: For the molecule CC(C)N(Cc1c(O)ccc(C(=O)/C=C/c2ccc(O)cc2)c1O)C(C)C , is IC50 under 70 µM?
false (0)

Hi there! Is IC50 for CN(C)Cc1c(O)ccc(C(=O)/C=C/c2ccc(O)cc2)c1O below 70 µM, do you know?
false (0)

Does O=C(/C=C/c1ccc(O)cc1)c1ccc(O)c(CN2CCOCC2)c1O have IC50 strictly under 70 µM?
false (0)

Regarding CCC(C)NCc1c(O)ccc(C(=O)/C=C/c2ccc(O)cc2)c1O (centres unmarked) , kindly confirm whether its IC50 is beneath 70 µM.
false (0)

====

Please respond with reported melting point for every item in the list.

Quickly give me recorded melting point for CN(C)Cc1c(O)ccc(C(=O)/C=C/c2ccc(O)cc2)c1O [Compound 7]
> 176 °C

Supply recorded melting point for O=C(C=Cc1ccc(O)cc1)c1ccc(O)c(CNCCO)c1O [Compound 14] here.
> 180 °C

Given O=C(/C=C/c1ccc(O)cc1)c1ccc(O)c(CNC2CCCCC2)c1O [Compound 9] , respond with its melting point.
> 168 °C

In one line, give reported melting point of the entry CCN(CC)Cc1c(O)ccc(C(=O)/C=C/c2ccc(O)cc2)c1O [Compound 11] .
> 176 °C

Please give the documented melting point of CC(C)(C)NCc1c(O)ccc(C(=O)/C=C/c2ccc(O)cc2)c1O [Compound 13]
> 170 °C

Please supply the value of reported melting point for the item CCC(C)NCc1c(O)ccc(C(=O)/C=C/c2ccc(O)cc2)c1O (centres unmarked) [Compound 12]
> 175 °C

Respond only with melting point recorded for CC(C)N(Cc1c(O)ccc(C(=O)/C=C/c2ccc(O)cc2)c1O)C(C)C [Compound 10]
> 180 °C

Please list melting point recorded for the compound O=C(/C=C/c1ccc(O)cc1)c1ccc(O)c(CN2CCOCC2)c1O [Compound 8]
> 180 °C
